src = patent US10479780B2

molecular target: human Lck enzyme (Homo sapiens, UniProt P06239); construct: purchased Carna Biosciences, Inc. 08-170; assay: Lck enzyme inhibitory activity (time-resolved fluorometry, biotinylated peptide phosphorylation); assay type: biochemical; conditions: read-out: LCK_IC50
Sequence (P06239 whole entry): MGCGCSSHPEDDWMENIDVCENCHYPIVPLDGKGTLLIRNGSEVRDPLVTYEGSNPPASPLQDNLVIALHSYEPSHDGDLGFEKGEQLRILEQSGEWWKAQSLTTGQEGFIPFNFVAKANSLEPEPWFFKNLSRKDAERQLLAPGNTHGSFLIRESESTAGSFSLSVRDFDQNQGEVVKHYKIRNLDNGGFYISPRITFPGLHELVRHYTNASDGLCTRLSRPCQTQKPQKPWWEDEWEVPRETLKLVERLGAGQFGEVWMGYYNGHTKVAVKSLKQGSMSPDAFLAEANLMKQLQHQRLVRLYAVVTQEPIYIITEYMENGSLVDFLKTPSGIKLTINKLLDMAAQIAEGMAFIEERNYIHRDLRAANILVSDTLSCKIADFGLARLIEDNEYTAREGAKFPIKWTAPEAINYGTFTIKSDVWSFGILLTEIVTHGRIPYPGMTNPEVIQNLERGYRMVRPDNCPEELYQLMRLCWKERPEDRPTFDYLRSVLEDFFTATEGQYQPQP
readout.label: IC50 (nM)

As a guide, the following entries are already answered.
Cc1cc(-n2ncc(C(=O)c3cc4cc(OC5CCN(C(C)C)CC5)c(N5C(=O)NC(C)(C)C5=O)cc4[nH]3)c2N)ccc1Oc1ccccc1F 6.3
Cc1cc(Oc2cccc(Cl)c2)cc(F)c1-n1ncc(C(=O)c2cc3cc(NS(C)(=O)=O)c(F)cc3[nH]2)c1N 6.4

I = Cc1cc(-n2ncc(C(=O)c3cc4cc(OC5CCN(C(C)C)CC5)c(N5CCC(N6CCOCC6)CC5)cc4[nH]3)c2N)c(F)cc1Oc1ccccc1F
II = Nc1c(C(=O)c2cc3cc(F)c(NS(=O)(=O)CCCF)cc3[nH]2)cnn1-c1ccc(Oc2ncccc2Cl)cc1Cl
Hello, I am sorting some records. Could you say if I or II has the smaller IC50 value? Kindly state the label of the option you pick.
I
(I: 6 nM, II: 17 nM)
